Target: T1, purified recombinant RSV-Gb protein (Sino Biologics) (Respiratory Syncytial Virus subtype B, …, UniProt O36633 67-299)
T1 sequence: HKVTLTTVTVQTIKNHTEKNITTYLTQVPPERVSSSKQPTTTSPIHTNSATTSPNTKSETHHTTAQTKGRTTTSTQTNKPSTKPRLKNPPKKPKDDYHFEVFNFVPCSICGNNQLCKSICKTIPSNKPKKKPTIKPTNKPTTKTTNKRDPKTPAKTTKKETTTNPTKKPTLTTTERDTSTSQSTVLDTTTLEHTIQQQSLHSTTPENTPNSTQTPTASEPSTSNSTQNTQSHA
Experiment: SPR (IBIS MX96), IgG captured on anti-human IgG, RSV Gb injected
Give measured Kd for each item. Keep answers brief.
One number for each entry, in nM.

Consider the following items and state reported Kd for each.
1. AT40 (antibody, V domains shown) VH: QVQLVESGGGVVQPGMSHRLSCAASTLIFDRHALHWVRQAPGAGLEWVAILSYDGTTDYYADSVKGRFTVSRDTSKNTVFLQMNGLRPQDTAVYYCARGRALDDFADYGGYYFDYWGQGILVTVSS VL: DIQMTQSPSSVSASVGDKVTITCRASQGISTWLAWYQQKPGKAPALLIYSASRLQSGVPSRFSGSGSGTDFTLTISSLQPEDYATYYCQQANTFPFTFGPGTKVDIKR
2. AT44 (antibody, V domains shown) VH: QVQLQASGPGLVKPSETLSLTCNVSGYSVSSGHYWAWVRQSPGKGLEWIGGIHHSGSTYTNPPLKSRVSISIDTSKNQFSLRLTSVTAADTAVYFCARDLYDLSTGPFWFDPWGQGTLVTVSS VL: EIVMTQSPATLSVSPGERVTLSCRASQSVSTKVVWYQQKFGQAPRLLIYGASTRATGIPVRFSGSGSGTEFTLTISSLQSEDLAVYFCQQYNKWPMYTFGQGTKLEIKR
3. AT49 (antibody, V domains shown) VH: QVLLVQSGAEIKKPGSSVKISCKASGGTFSSLALNWVRQAPGQGLQWMGGIIPLFGTQNYAQKFQGRVTITADESTSTAYMELSGLRPEDTAVYYCALFLWFGDQTSDDGFDVWGQGTVVTVSS VL: DIVMTQSPLSLTVTPGEPASISCRSSQSLLHGNGYKYLHWYLQKPGQSPQLLIYLGSNRASGVPARFSGSGSDTDFTLKISTVETEDVGVYYCMQALQSPTFGQGTKVEIKR
4. AT42 (antibody, V domains shown) VH: QVQLQESGPGLVQPSETLSLTCTVSGDSITSNVYYWGWIRQPPGKGLEWIGSIFHSGITHYTPSLNSRVTISVDTSKNQFSLRLSSATAADTAVYYCARHWAGLYFDSWGQGALVAVSS VL: EIVLTQSPGTLSLSPGERATLSCRASQTVSSSHLAWYQQKPGQAPRLLIHGSSSRATGIPERFSGSGSGPDFTLTISRLKPEDFAVYYCQYYGDSPGSFGEGTKVEIKR

1: 0.1; 2: 0.1; 3: 0.5; 4: 0.3
